Test: Clearance in Sprague-Dawley rat hepatocytes at 1 uM measured up to 3 hrs by LC-MS/MS analysis
Type: ADME, cell-based, Hepatocyte
Recorded Metric: CLhep predicted at 1 µM

The cases that follow already have their CLhep predicted at 1 µM on record.
1. O=S(=O)(Nc1ccncn1)c1cc2c(cc1F)[C@@H](N1CC[C@H](C(F)(F)F)C[C@@H]1c1ccc(F)cc1)CCO2    14 mL/min/kg
2. O=S(=O)(Nc1ccncn1)c1cc2c(cc1F)[C@@H](N1CC[C@H](C(F)(F)F)C[C@@H]1c1ccncc1)CCO2    13 mL/min/kg
3. Cn1nccc1[C@H]1C[C@@H](C(F)(F)F)CCN1[C@H]1CCOc2cc(S(=O)(=O)Nc3ccncn3)c(F)cc21    14 mL/min/kg
4. O=S(=O)(Nc1ncns1)c1ccc2c(c1)OCC[C@@H]2N1CC[C@H](C(F)(F)F)C[C@@H]1c1ccc(F)cc1    17 mL/min/kg
5. O=S(=O)(Nc1ccc(F)cn1)c1cc2c(cc1F)[C@@H](N1CC[C@H](C(F)(F)F)C[C@@H]1c1ccc(F)cc1)CCO2    < 10 mL/min/kg
6. O=S(=O)(Nc1ccncn1)c1cc2c(cc1F)[C@@H](N1CC[C@H](C(F)(F)F)C[C@@H]1c1cn[nH]c1)CCO2    18 mL/min/kg
7. O=S(=O)(Nc1ncns1)c1ccc2c(c1)OCC[C@@H]2N1CC[C@H](C(F)(F)F)C[C@@H]1c1ccccc1    32 mL/min/kg
8. O=S(=O)(Nc1ccncn1)c1cc2c(cc1F)[C@@H](N1CC[C@H](C(F)(F)F)C[C@@H]1c1cccnc1)CCO2    26 mL/min/kg

Batch of 2 compounds: report CLhep predicted at 1 µM for each.
1. O=S(=O)(Nc1ccncn1)c1cc2c(cc1F)[C@@H](N1CC[C@H](C(F)(F)F)C[C@@H]1c1cnccn1)CCO2
2. Cn1ccc([C@H]2C[C@@H](C(F)(F)F)CCN2[C@H]2CCOc3cc(S(=O)(=O)Nc4ccncn4)c(F)cc32)n1

["25 mL/min/kg", "41 mL/min/kg"]

----------
Provide the reported clearance of each item.
Test: Plasma clearance in Sprague-Dawley rat at 1 mg/kg, iv measured up to 8 hrs by LC-MS/MS analysis
Assay type: ADME, organism-based
Numbers only, in mL/min/kg.

1) Cn1ccc([C@H]2C[C@@H](C(F)(F)F)CCN2[C@H]2CCOc3cc(S(=O)(=O)Nc4ccncn4)c(F)cc32)n1    46
2) O=S(=O)(Nc1ccon1)c1cc2c(cc1F)[C@@H](N1CC[C@H](C(F)(F)F)C[C@@H]1c1ccc(F)cc1)CCO2    2.1
3) O=S(=O)(Nc1ccncn1)c1cc2c(cc1F)[C@@H](N1CC[C@H](C(F)(F)F)C[C@@H]1c1cn[nH]c1)CCO2    161

I'm hoping you can list clearance for every compound here, please.
1. O=S(=O)(Nc1ccncn1)c1cc2c(cc1F)[C@@H](N1CC[C@H](C(F)(F)F)C[C@@H]1c1cc[nH]n1)CCO2
2. O=S(=O)(Nc1ncns1)c1ccc2c(c1)OCC[C@@H]2N1CC[C@H](C(F)(F)F)C[C@@H]1c1ccc(F)cc1
3. Cn1nccc1[C@H]1C[C@@H](C(F)(F)F)CCN1[C@H]1CCOc2cc(S(=O)(=O)Nc3ccncn3)c(F)cc21

1. 93
2. 62
3. 42

clearance for O=S(=O)(Nc1ccncn1)c1cc2c(cc1F)[C@@H](N1CC[C@H](C(F)(F)F)C[C@@H]1c1cnccn1)CCO2 ?
42
